Where these numbers come from: ChEMBL document CHEMBL4428053

- Method Notes: AUC (infinity) in Harlan rat at 10 mg/kg, po by LC-MS/MS analysis
- Type: ADME, organism-based
- Set-up: dose 10 mg/kg, route oral, time infinity
- Test Conditions: in vivo
Outcome Measure: AUC(0-inf) (µM·h)

Smiles: COc1cc(C(=O)NS(C)(=O)=O)c(F)cc1-c1cnc(Oc2cc(F)ccc2F)c(Cl)c1
Outcome Measure: AUC(0-inf)
Value Unit: µM·h
Experimental Value: 377

----------
- Method Notes: in vitro
- Test Conditions: human, liver microsomes
Outcome Measure: microsomal CLint at 1 µM (µL/min/mg)

Smiles: COc1cc(C(=O)NS(C)(=O)=O)ccc1-c1cnc(OCC2(C)CC2)c(Cl)c1
Modifier Sign: <
Experimental Value: 14
//
Smiles: CC(C)COc1ncc(-c2ccc(C(=O)NS(C)(=O)=O)cc2F)cc1Cl
Modifier Sign: =
Experimental Value: 27
//
Smiles: Cc1cc(-c2cnc(OCC(C)C)c(Cl)c2)ccc1C(=O)NS(C)(=O)=O
Modifier Sign: =
Experimental Value: 22
//
Smiles: CC(C)COc1ncc(-c2ccc(C(=O)NS(C)(=O)=O)c(Cl)c2)cc1Cl
Modifier Sign: =
Experimental Value: 26
//
Smiles: CC(C)COc1ncc(-c2ccc(C(=O)NS(C)(=O)=O)cc2OC(F)(F)F)cc1Cl
Modifier Sign: >
Experimental Value: 399
//
Smiles: CC(C)COc1ncc(-c2ccc(C(=O)NS(C)(=O)=O)cc2C#N)cc1Cl
Modifier Sign: =
Experimental Value: 20
//
Smiles: CC(C)COc1ncc(-c2ccc(C(=O)NS(C)(=O)=O)cc2C(F)(F)F)cc1Cl
Modifier Sign: >
Experimental Value: 399
//
Smiles: CC(C)COc1ncc(-c2ccc(C(=O)NS(C)(=O)=O)cc2Cl)cc1Cl
Modifier Sign: =
Experimental Value: 30
//
Smiles: CC(C)COc1ncc(-c2ccc(C(=O)NS(C)(=O)=O)cc2C(=O)N(C)C)cc1Cl
Modifier Sign: =
Experimental Value: 19
//
Smiles: COc1cc(C(=O)NS(C)(=O)=O)ccc1-c1cnc(Oc2cc(Cl)cc(Cl)c2)c(C#N)c1
Modifier Sign: =
Experimental Value: 39
//
Smiles: COc1cc(C(=O)NS(C)(=O)=O)ccc1-c1cnc(Oc2cc(Cl)cc(Cl)c2)c(C(F)(F)F)c1
Modifier Sign: <
Experimental Value: 14
//
Smiles: COc1cc(C(=O)NS(C)(=O)=O)ccc1-c1cnc(Oc2cc(Cl)cnc2OC)c(Cl)c1
Modifier Sign: <
Experimental Value: 14
//
Smiles: COc1cc(C(=O)NS(C)(=O)=O)ccc1-c1cnc(Oc2cc(Cl)cc(Cl)c2)c(C(F)F)c1
Modifier Sign: <
Experimental Value: 14
//
Smiles: CC(C)COc1ncc(-c2ccc(C(=O)NS(C)(=O)=O)cc2C2=CCOC2)cc1Cl
Modifier Sign: >
Experimental Value: 399
//
Smiles: COc1cc(C(=O)NS(C)(=O)=O)ccc1-c1cnc(OCC(C)C)c(Cl)c1
Modifier Sign: =
Experimental Value: 44
//
Smiles: COc1cc(C(=O)NS(C)(=O)=O)ccc1-c1cnc(Sc2cccc(C)c2)c(Cl)c1
Modifier Sign: =
Experimental Value: 199
//
Smiles: CC(C)COc1ncc(-c2ccc(C(=O)NS(C)(=O)=O)c(F)c2)cc1Cl
Modifier Sign: <
Experimental Value: 14
//
Smiles: COc1cc(C(=O)NS(C)(=O)=O)ccc1-c1cnc(OCc2ccc(Cl)cc2)c(Cl)c1
Modifier Sign: <
Experimental Value: 14
//
Smiles: CC(C)COc1ncc(-c2ccc(C(=O)NS(C)(=O)=O)cc2)cc1Cl
Modifier Sign: =
Experimental Value: 14
//
Smiles: COc1cc(C(=O)NS(C)(=O)=O)ccc1-c1cnc(N2CCC[C@H]2C(C)C)c(Cl)c1
Modifier Sign: =
Experimental Value: 385
//
Smiles: COc1cc(C(=O)NS(C)(=O)=O)ccc1-c1cnc(Oc2cc(F)ccc2F)c(Cl)c1
Modifier Sign: <
Experimental Value: 14
//
Smiles: COc1cc(C(=O)NS(C)(=O)=O)ccc1-c1cnc(Oc2cc(Cl)cc(Cl)c2)c(Cl)c1
Modifier Sign: <
Experimental Value: 14
//
Smiles: COc1cc(C(=O)NS(C)(=O)=O)c(F)cc1-c1cnc(Oc2cc(F)ccc2F)c(Cl)c1
Modifier Sign: =
Experimental Value: 27
//
Smiles: COc1cc(C(=O)NS(C)(=O)=O)ccc1-c1cnc(OC2CCC2)c(Cl)c1
Modifier Sign: =
Experimental Value: 102
//
Smiles: CC(C)COc1ncc(-c2cc(F)c(C(=O)NS(C)(=O)=O)cc2F)cc1Cl
Modifier Sign: =
Experimental Value: 47
//
Smiles: COc1cc(C(=O)NS(C)(=O)=O)c(F)cc1-c1cnc(OCC2(C)CC2)c(Cl)c1
Modifier Sign: =
Experimental Value: 110
//
Smiles: CC(C)COc1ncc(-c2ncc(C(=O)NS(C)(=O)=O)cc2F)cc1Cl
Modifier Sign: =
Experimental Value: 18
